measured-on: VLP2 (virus-like particles, capsid protein particles of AAV serotype 2) (AAV serotype 2 (AAV2)) (UniProt P03135)
Sequence (P03135 whole entry): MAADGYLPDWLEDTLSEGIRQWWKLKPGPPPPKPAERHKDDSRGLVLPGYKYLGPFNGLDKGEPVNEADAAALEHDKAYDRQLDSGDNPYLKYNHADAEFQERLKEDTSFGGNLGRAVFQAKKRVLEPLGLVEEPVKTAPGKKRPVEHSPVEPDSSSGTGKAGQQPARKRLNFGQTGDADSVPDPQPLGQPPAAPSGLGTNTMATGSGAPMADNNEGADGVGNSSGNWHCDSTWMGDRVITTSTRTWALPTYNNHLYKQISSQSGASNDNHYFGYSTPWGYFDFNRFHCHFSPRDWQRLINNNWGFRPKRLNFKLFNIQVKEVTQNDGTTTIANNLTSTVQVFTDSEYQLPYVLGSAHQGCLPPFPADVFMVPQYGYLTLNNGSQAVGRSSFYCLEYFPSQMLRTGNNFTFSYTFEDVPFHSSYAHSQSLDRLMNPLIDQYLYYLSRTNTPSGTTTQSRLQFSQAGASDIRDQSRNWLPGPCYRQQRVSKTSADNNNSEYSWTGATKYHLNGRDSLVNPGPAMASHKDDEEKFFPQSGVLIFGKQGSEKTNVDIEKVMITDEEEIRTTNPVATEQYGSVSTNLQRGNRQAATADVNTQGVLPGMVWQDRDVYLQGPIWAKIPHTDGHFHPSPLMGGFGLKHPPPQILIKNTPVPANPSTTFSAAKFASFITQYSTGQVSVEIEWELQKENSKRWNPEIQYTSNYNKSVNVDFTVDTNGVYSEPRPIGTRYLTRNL
procedure-details: ELISA on immobilised VLP2 (culture supernatant, anti-His detection); A450 after 1:1 0.5 M NaOH, 30 min, 30°C divided by A450 untreated
measurement-kind: Remaining activity [%] (%)
One number for each entry, in %.

1) AVR21 with T397A (receptor) MGSAGESDQITLPKHEAQLNVYVLLVPPKGEASTYDWQLITHPRDYSGEMEGEHSQILKLSNLTPGLYEYRAVVEGQNAHSEGYVNVAVEPEPRKNRPPIAIVSPQFQEISLPTTSTVIDGSQSTDDDKIVQYHWEELKGPLREEKISEDTAILKLSQLVPGNYTFRLTVVDTDGATDSTTADLTVNKAVDHHHHHH    40.4

Incoming: // lookup Remaining activity [%] for AVR21 with I366F, D435A (receptor) MGSAGESDQITLPKHEAQLNVYVLLVPPKGEASTYDWQLITHPRDYSGEMEGEHSQFLKLSNLTPGLYEYRAVVEGQNAHSEGYVNVTVEPEPRKNRPPIAIVSPQFQEISLPTTSTVIDGSQSTADDKIVQYHWEELKGPLREEKISEDTAILKLSQLVPGNYTFRLTVVDTDGATDSTTADLTVNKAVDHHHHHH
Outgoing: 38.4
